These measurements were taken from PubChem BioAssay (NCATS).

- Tested on: NIH3T3
- Measurement Protocol: Cytotoxic Profiling of Annotated Libraries Using Quantitative High-Throughput Screening (AID 1296008); further: on the % scale 0 is the no-effect control and ±100 the full control effect; nearly all actives have a fitted effect of over 60% in size
- Conditions: Five cell lines viability, CellTiter-Glo ATP luminescence, 48-72 h; active compounds read low
Results filed as inconclusive are left out.
I'd be grateful if you could share measured max response for these entries.
Field: numeric (%). Do not append units.

[in] Supply max response value. Item: CC1CC(OC(=O)c2ccccc2O)CC(C)(C)C1 (configuration not stated)
[out] -4.04

[in] Supply max response value. Item: "Nc1ncnc2c1ncn2[C@@H]1O[C@H](COP(=O)(O)O)[C@@H](O)[C@H]1O"
[out] 4.32

[in] Supply max response value. Item: "C[C@@H]1CCC[C@H](C)N1"
[out] 4.6

[in] Supply max response value. Item: "C/C(=C(\CCO)SS/C(CCO)=C(\C)N(C=O)Cc1cnc(C)nc1N)N(C=O)Cc1cnc(C)nc1N"
[out] -2.04

[in] Supply max response value. Item: "CCCCCCCCCCOc1cc2c(=O)c(C(=O)OCC)c[nH]c2cc1OCC"
[out] -1.43

[in] Supply max response value. Item: "CN(C/C=C/C#CC(C)(C)C)Cc1cccc2ccccc12"
[out] 2.57

[in] Supply max response value. Item: "CC(=O)OCC(=O)[C@@]1(O)CC[C@H]2[C@@H]3CCC4=CC(=O)C=C[C@]4(C)[C@@]3(F)[C@@H](O)C[C@@]21C"
[out] 0.516

[in] Supply max response value. Item: C=CCSCC1Nc2cc(Cl)c(S(N)(=O)=O)cc2S(=O)(=O)N1 (configuration not stated)
[out] 4.06

[in] Supply max response value. Item: CC(C)CCCC(C)CCCC(C)CCCCC(C)CCCC(C)CCCC(C)C (configuration not stated)
[out] -1.47

[in] Supply max response value. Item: "CCCCOC(=O)c1ccc(N)cc1"
[out] -6.66

[in] Supply max response value. Item: CC(O)CCCCn1c(=O)c2c(ncn2C)n(C)c1=O (configuration not stated)
[out] 4.47

[in] Supply max response value. Item: "Cc1cc(O)cc(C)c1Cl"
[out] 1.17

---

- Measurement Protocol: Drug repurposing screens with cells derived from glioblastoma tumor samples (AID 1345199); further: on the % scale 0 is the no-effect control and ±100 the full control effect; nearly all actives have a fitted effect of over 40% in size
- Conditions: GBM patient neurospheres viability, ATP luminescence, 48 h; at 46 µM (top of the series); tumour line A
Records with an inconclusive call do not appear.
Measured Property: activity, negative = cell killing (%)
Field: numeric (%). Do not append units.

[in] Supply activity, negative = cell killing value. Item: "CN1C(C)(C)CCCC1(C)C"
[out] -29.4

[in] Supply activity, negative = cell killing value. Item: "CC(C)NC[C@@H](O)COc1ccc(CC(N)=O)cc1"
[out] 1.1

[in] Supply activity, negative = cell killing value. Item: OCC(O)CS (stereo unspecified)
[out] -9.33

[in] Supply activity, negative = cell killing value. Item: "C[C@@H]1O[C@@H](OC[C@H]2O[C@@H](Oc3c(-c4ccc(O)c(O)c4)oc4cc(O)cc(O)c4c3=O)[C@H](O)[C@@H](O)[C@@H]2O)[C@H](O)[C@H](O)[C@H]1O"
[out] -16.5

[in] Supply activity, negative = cell killing value. Item: "c1ccc2[nH]ccc2c1"
[out] -21.8

[in] Supply activity, negative = cell killing value. Item: "COc1ccccc1OC(=O)Oc1ccccc1OC"
[out] -34.8

[in] Supply activity, negative = cell killing value. Item: "CN1CC(=O)NC1=N"
[out] -16.7

[in] Supply activity, negative = cell killing value. Item: "CCOC(N)=O"
[out] -11.2

[in] Supply activity, negative = cell killing value. Item: "CC[N+](C)(CC)CCOC(=O)C1c2ccccc2Oc2ccccc21"
[out] -6.39

[in] Supply activity, negative = cell killing value. Item: "CC(=O)N1C[C@H](O)C[C@H]1C(=O)O"
[out] -19.6

[in] Supply activity, negative = cell killing value. Item: "Nc1ncnc2c1ncn2[C@@H]1O[C@H](COP(=O)(O)O)[C@@H](O)[C@H]1O"
[out] -19.3
